Data origin: patent US20250136612A1

Listed next: entries and their corresponding IC50.
Molecular target: UniProt:O14791
Experiment: MultiTox-Fluor Multiplex Cytotoxicity Assay in tet-inducible APOL1 T-REx-HEK293 cells
Conditions: 50 ng/mL tet, 24 hours, ratio of dead to live cells, read-out: IP50 (i.e., IC50 for cell proliferation)
Protocol: The MultiTox-Fluor Multiplex Cytotoxicity Assay is a single-reagent-addition, homogeneous, fluorescence assay that measures the number of live and dead cells simultaneously in culture wells. […] The live-cell protease activity is restricted to intact viable cells and is measured using a fluorogenic, cell-permeant peptide glycyl-phenylalanylamino fluorocoumarin (GF-AFC) substrate. […] Assay ready plates from the Global Compound Archive were ordered using template 384_APOL1Cell_DR10n2_50 uM_v3. […]
measured.property: IC50

compound="CCc1cc2c(s1)C1(CCNC(c3cn(C)nn3)C1)OCC2 (centres unmarked) [Compound 4]" result_value="0.1 to 0.5 µM"
compound="CN(C)C(=O)c1ccc(-n2cc([C@@H]3C[C@]4(CCN3)OCCc3cc(Cl)sc34)nn2)cc1 [Compound 68]" result_value="0.1 to 0.5 µM"
compound="CCc1cc2c(s1)CCOC21CCNC(C2CC2)C1 (single isomer, unassigned) [Compound 29]" result_value="0.5 to 1 µM"
compound="CS(=O)(=O)CCn1cc([C@@H]2C[C@]3(CCN2)OCCc2cc(Cl)sc23)nn1 [Compound 73]" result_value="0.5 to 1 µM"
compound="CCc1cc2c(s1)CCOC21CCNC(c2cnc(C)nc2)C1 (centres unmarked) [Compound 18]" result_value="0.5 to 1 µM"
compound="O=C1NCc2cc(-n3cc([C@@H]4C[C@]5(CCN4)OCCc4cc(Cl)sc45)nn3)ccc21 [Compound 61]" result_value="0.1 to 0.5 µM"
compound="COc1ccc(-n2cc([C@@H]3C[C@]4(CCN3)OCCc3cc(Cl)sc34)nn2)cc1 [Compound 67]" result_value="0.1 to 0.5 µM"
compound="Cn1cc([C@@H]2C[C@]3(CCN2)OCCc2cc(Cl)sc23)nn1 (single isomer, unassigned) [Compound 2]" result_value="0.1 to 0.5 µM"
compound="NC(=O)c1ccc(-n2cc([C@@H]3C[C@]4(CCN3)OCCc3cc(Cl)sc34)nn2)cc1 [Compound 59]" result_value="0.1 to 0.5 µM"
compound="CCc1cc2c(s1)C(C)COC21CCNC(c2cn(C)nn2)C1 (centres unmarked) [Compound 9]" result_value="0.1 to 0.5 µM"
compound="COc1cccc(-n2cc([C@@H]3C[C@]4(CCN3)OCCc3cc(Cl)sc34)nn2)c1 [Compound 71]" result_value="0.1 to 0.5 µM"
compound="Cn1cc([C@@H]2C[C@]3(CCN2)OCC(O)c2cc(Cl)sc23)nn1 (some centres unmarked) [Compound 35]" result_value="0.1 to 0.5 µM"
compound="Cn1cc([C@@H]2C[C@]3(CCN2)OCC(O)(C(F)F)c2cc(Cl)sc23)nn1 (single isomer, unassigned) [Compound 40]" result_value="< 0.1 µM"
compound="Oc1ccccc1-n1cc([C@@H]2C[C@]3(CCN2)OCCc2cc(Cl)sc23)nn1 [Compound 75]" result_value="0.5 to 1 µM"
compound="Cc1cc2c(s1)CCOC21CCNC(C2CC2)C1 (centres unmarked) [Compound 20]" result_value="0.5 to 1 µM"
compound="Cn1cnc(C2CC3(CCN2)OCCc2cc(Cl)sc23)c1 (centres unmarked) [Compound 12]" result_value="0.5 to 1 µM"
compound="Fc1ccc(-n2cc([C@@H]3C[C@]4(CCN3)OCCc3cc(Cl)sc34)nn2)cc1 [Compound 72]" result_value="0.5 to 1 µM"

---

Listed next: entries and their corresponding IC50.
target: APOL1 (Homo sapiens, UniProt O14791); assay: MultiTox-Fluor Multiplex Cytotoxicity Assay in tet-inducible APOL1 T-REx-HEK293 cells; conditions: 50 ng/mL tet, 24 hours, ratio of dead to live cells, read-out: IP50 (i.e., IC50 for cell proliferation)
Sequence (O14791 whole entry S342G/I384M, form open): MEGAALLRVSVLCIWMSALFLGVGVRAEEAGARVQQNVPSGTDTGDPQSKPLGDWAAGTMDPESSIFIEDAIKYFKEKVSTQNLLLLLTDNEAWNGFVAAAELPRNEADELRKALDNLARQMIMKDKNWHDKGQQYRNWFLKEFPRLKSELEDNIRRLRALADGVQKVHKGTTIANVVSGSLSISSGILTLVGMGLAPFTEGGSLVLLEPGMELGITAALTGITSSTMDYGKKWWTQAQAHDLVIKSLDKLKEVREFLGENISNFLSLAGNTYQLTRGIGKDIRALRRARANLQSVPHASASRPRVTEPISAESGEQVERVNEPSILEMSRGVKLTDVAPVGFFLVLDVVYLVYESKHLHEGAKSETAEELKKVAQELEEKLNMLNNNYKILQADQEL
measured.property: IC50

molecule="CCc1cc2c(s1)CCOC21CCNC(c2ccnnc2)C1 (stereo not shown) [Compound 15]" result_value="500 to 1000 nM"
molecule="O=C1NCc2ccc(-n3cc([C@@H]4C[C@]5(CCN4)OCCc4cc(Cl)sc45)nn3)cc21 [Compound 56]" result_value="< 100 nM"
molecule="Clc1cc2c(s1)[C@@]1(CCN[C@H](c3cn(-c4ccccc4)nn3)C1)OCC2 [Compound 55]" result_value="100 to 500 nM"
molecule="[2H]C1([2H])CO[C@]2(CCN[C@H](c3cn(C)nn3)C2)c2sc(Cl)cc21 [Compound 43]" result_value="100 to 500 nM"

---

biological target: APOL1 (Homo sapiens, UniProt O14791); test: MultiTox-Fluor Multiplex Cytotoxicity Assay in tet-inducible APOL1 T-REx-HEK293 cells; settings: 50 ng/mL tet, 24 hours, ratio of dead to live cells, read-out: IP50 (i.e., IC50 for cell proliferation)
measured.property: IC50

compound="Fc1cccc(-n2cc([C@@H]3C[C@]4(CCN3)OCCc3cc(Cl)sc34)nn2)c1 [Compound 70]" tested_on="APOL1 (Homo sapiens, UniProt O14791)" result_value="0.1 to 0.5 µM"
compound="Cn1cc([C@@H]2C[C@]3(CCN2)OCCc2cc(I)sc23)nn1 [Compound 33]" tested_on="APOL1 (Homo sapiens, UniProt O14791)" result_value="< 0.1 µM"
compound="Clc1cc2c(s1)[C@@]1(CCN[C@H](c3cn(-c4cccnc4)nn3)C1)OCC2 [Compound 63]" tested_on="APOL1 (Homo sapiens, UniProt O14791)" result_value="0.1 to 0.5 µM"
compound="CC(O)c1c(C(F)(F)F)sc2c1CCOC21CCN[C@H](c2cn(C)nn2)C1 (single isomer, unassigned) [Compound 52]" tested_on="APOL1 (Homo sapiens, UniProt O14791)" result_value="0.1 to 0.5 µM"
compound="CN1Cc2cc(-n3cc([C@@H]4C[C@]5(CCN4)OCCc4cc(Cl)sc45)nn3)ccc2C1=O [Compound 60]" tested_on="APOL1 (Homo sapiens, UniProt O14791)" result_value="0.1 to 0.5 µM"
compound="Clc1cc2c(s1)[C@@]1(CCN[C@H](c3cn[nH]c3)C1)OCC2 [Compound 26]" tested_on="APOL1 (Homo sapiens, UniProt O14791)" result_value="< 0.1 µM"
compound="Cn1cc([C@@H]2C[C@]3(CCN2)OCCc2cc(Br)sc23)nn1 [Compound 22]" tested_on="APOL1 (Homo sapiens, UniProt O14791)" result_value="< 0.1 µM"
compound="FC(F)Cc1cc2c(s1)C1(CCNC(c3ccccc3)C1)OCC2 (stereo not drawn) [Compound 50]" tested_on="APOL1 (Homo sapiens, UniProt O14791)" result_value="0.1 to 0.5 µM"
compound="Cn1cc(C2CC3(CCN2)OCCc2cc(C(F)(F)F)sc23)nn1 (stereo not drawn) [Compound 5]" tested_on="APOL1 (Homo sapiens, UniProt O14791)" result_value="< 0.1 µM"
